Hey, just so you know, these numbers are from paper PMC4707474.

experimental_target: P. aeruginosa DHODase (PyrD, dihydroorotate dehydrogenase) (Pseudomonas aeruginosa, UniProt Q9HZF8)
Construct: pyrD open reading frame from PAO1 genomic DNA, in pET28a, recombinant Ni-NTA purified
Sequence (Q9HZF8 whole entry): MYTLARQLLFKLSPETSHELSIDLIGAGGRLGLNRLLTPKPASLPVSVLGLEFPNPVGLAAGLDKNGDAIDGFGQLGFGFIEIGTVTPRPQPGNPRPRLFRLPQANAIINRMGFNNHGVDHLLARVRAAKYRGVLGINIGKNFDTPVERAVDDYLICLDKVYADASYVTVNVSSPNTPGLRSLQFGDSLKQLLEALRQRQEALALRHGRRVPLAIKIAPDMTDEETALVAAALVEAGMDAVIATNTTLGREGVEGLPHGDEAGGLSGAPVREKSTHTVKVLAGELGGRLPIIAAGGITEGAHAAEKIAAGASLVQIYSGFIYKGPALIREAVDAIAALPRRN
method: DCIP-based colorimetric enzyme assay, […] min preincubation, dose-response
Type: biochemical
recorded_endpoint: IC50 (µM)
Note: unit µM is implicit; provide only the numeric part.

input: Give the measured IC50 of "C[C@@H](NC(=O)CSc1nnnn1-c1ccc(O)cc1)c1ccc(-c2ccccc2)cc1" .
output: 41
